Organism: Homo sapiens
Test: Selectivity index, ratio of IC50 for human recombinant CYP1A1 to IC50 for human recombinant CYP1B1 using 7-ethoxyresorufin as substrate
QUANTITY_MEASURED: Ratio IC50

Example entries and their recorded answers appear below.
SMILES_REPR: O=C(Nc1ccc(OC(F)F)cc1)c1nc(-c2ccc(F)cc2)cs1
ASSAY_RESULT: 122
//
SMILES_REPR: Cc1ccccc1-c1csc(C(=O)Nc2cc(Cl)cc(Cl)c2)n1
ASSAY_RESULT: 4.3
//
SMILES_REPR: N#Cc1ccc(NC(=O)c2nc(-c3ccccc3)cs2)cc1
ASSAY_RESULT: 113
//
SMILES_REPR: Cc1sc(C(=O)Nc2ccc(C(F)(F)F)cc2)nc1-c1cccc(F)c1
ASSAY_RESULT: 79.2

[1] O=C(Nc1ccc(OC(F)F)cc1)c1nc(-c2cccc(Cl)c2)cs1
[2] NC(=O)c1cccc(-c2csc(C(=O)Nc3ccc(OC(F)F)cc3)n2)c1
[3] O=C(Nc1cc(Cl)cc(Cl)c1)c1nc(-c2cncc(Cl)c2)cs1
[4] N#Cc1ccc(-c2csc(C(=O)Nc3ccc(C(F)(F)F)cc3)n2)cc1
// query Arrange the 4 compounds from largest to smallest Ratio IC50. Kindly provide the labels arranged according to the requested ordering.
// result 4, 1, 2, 3
